Origin of the recorded values: PubChem BioAssay

target system: Left-right determination factor 2 (Homo sapiens) (UniProt O00292)
Sequence (O00292 whole entry, looked up): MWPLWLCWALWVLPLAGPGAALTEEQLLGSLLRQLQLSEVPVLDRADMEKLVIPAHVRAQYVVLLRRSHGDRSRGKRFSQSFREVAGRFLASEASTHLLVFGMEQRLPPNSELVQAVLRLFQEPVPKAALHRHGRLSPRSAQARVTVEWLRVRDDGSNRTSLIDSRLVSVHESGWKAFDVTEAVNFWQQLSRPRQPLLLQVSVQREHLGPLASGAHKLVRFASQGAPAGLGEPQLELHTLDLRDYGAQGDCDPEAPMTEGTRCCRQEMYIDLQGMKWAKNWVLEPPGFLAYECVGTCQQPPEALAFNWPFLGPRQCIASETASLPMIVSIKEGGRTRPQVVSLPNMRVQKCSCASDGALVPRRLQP
assay text: LEFTY2 binders on small-molecule microarrays, primary screen, biochemical, small-molecule microarray, 635 nm fluorescence scan (AID 1110)
measurement setup: LEFTY2 binding, higher = more signal
Quick list: composite z-score per entry.
Number only, no unit.

Record excerpt, results attached:
What value of composite z-score has been recorded for this entry: COCCCNC(=O)[C@]1(Cc2ccccc2N=[N+]=[N-])N=C(c2ccc(OCCCO)cc2)O[C@@H]1c1ccccc1
-0.263

Note, next up: C=CCNC(=O)[C@H]1[C@@H]2C(=O)O[C@@H](c3ccccc3)[C@@H](c3ccccc3)N2[C@@H](c2ccc(OCCO)cc2)[C@]12C(=O)Nc1ccc(C#Cc3ccc(OC)cc3)cc12
0.699

Please find the next molecule below.
State the recorded composite z-score for this entry: COC(=O)[C@@]1(Cc2ccc(F)cc2)[C@@H]2C(=CC(=O)[C@H]2CC(=O)C(=O)N2CCCC2)CN1C(=O)c1ccccc1
0.643
